All values here come from patent US20220259593A1.

# Test system: K562 CRISPRi cells
# assay method text: Constant region variant library pooled growth screen, K562
# Assay type: cell-based, human
# study conditions: sgRNA constant region variants; relative to the original, un-modified constant region cr995; CRISPRi
measured endpoint: Mean relative activity

molecule: cr924 (nucleic acid, listed as DNA, chemistry not fully specified) guide: GTTTAAGAGCTAAGCTGGAAACAGCATAGCAAGTTTAAATAAAGCTAGTCTGTTATCAACTTGAAAAAGTGGCGCCGAGTCGGCGCT
measured endpoint: Mean relative activity
obs value: 0.3638
--
molecule: cr486 (nucleic acid, listed as DNA, chemistry not fully specified) guide: GTTTAAGAGCTAAGCTGGAAACAGCATAGCAAGTTTAAATAAGGCTAGTCCGTTATCAACTTGAAAAAGTGAAACTGAGTCAGTTTT
measured endpoint: Mean relative activity
obs value: 0.4409
--
molecule: cr775 (nucleic acid, listed as DNA, chemistry not fully specified) guide: GTTTAAGAGCTAAGCTGGAAACAGCATAGCGATTTTAAATAAGGCTAGTCCGTTATCAACTTGAAAAAGTGGCACCGAGTCGGTGCT
measured endpoint: Mean relative activity
obs value: 0.4052
--
molecule: cr088 (nucleic acid, listed as DNA, chemistry not fully specified) guide: ATTTAGGAGCTAAGCTGGAAACAGCATAGCAAGTTTAAATAAGGCTAGTCCGTTATCAACTTGAAAAAGTGGCACCGAGTCGGTGCT
measured endpoint: Mean relative activity
obs value: 0.3745
--
molecule: cr072 (nucleic acid, listed as DNA, chemistry not fully specified) guide: GTCTAAGTGCTAAGCTGGAAACAGCATAGCAAGTTTAAATAAGGCTAGTCCGTTATCAACTTGAAAAAGTGGCACCGAGTCGGTGCT
measured endpoint: Mean relative activity
obs value: 0.5236
--
molecule: cr460 (nucleic acid, listed as DNA, chemistry not fully specified) guide: GTTTAAGAGCTAAGCTGGAAACAGCATAGCAAGTTTAAATAAGGGTACTCCGTTATCAACTTGAAAAAGTGGCTCAGAGTCTGAGCT
measured endpoint: Mean relative activity
obs value: 0.4381
--
molecule: cr124 (nucleic acid, listed as DNA, chemistry not fully specified) guide: GTTTAAGAGCTAAGCTGGAAACAGCATAGCATGTTTAAATATGGCTAGTCCGTTATCAACTTGAAAAAGTGGCACCGAGTCGGTGCT
measured endpoint: Mean relative activity
obs value: 0.4757
--
molecule: cr659 (nucleic acid, listed as DNA, chemistry not fully specified) guide: GTTTAAGAGCTAAGCTGGAAACAGCATAGCAAGTTTACATAAGGCTAGTCCGTTATCAACTTGAAAAAGTGGCACCGAGTCGGTGCT
measured endpoint: Mean relative activity
obs value: 0.504
--
molecule: cr485 (nucleic acid, listed as DNA, chemistry not fully specified) guide: GTTTAAGAGCTAAGCTGGAAACAGCATAGCAAGTTTAAATAAGGCTTGTCCGTTATCAACTTGAAAAAGTTGCACCGTGTCGGTGCT
measured endpoint: Mean relative activity
obs value: 0.4419
--
molecule: cr728 (nucleic acid, listed as DNA, chemistry not fully specified) guide: GTTTAAGAGCTAAGCTGGAAACAGCATAGCAAGTTTAAATAAGGCTAGTCCGTTATCGACTTGACAAAGTGGCACCGAGTCGGTGCT
measured endpoint: Mean relative activity
obs value: 0.4155
--
molecule: cr868 (nucleic acid, listed as DNA, chemistry not fully specified) guide: GTTTAAGAGCTAAGCTGGAAACAGCATAGCAAGTTCAAATAAGGCTAGTCCGTTATCAACTTGAAAAAGTGGCACCGAGTCGGTGCT
measured endpoint: Mean relative activity
obs value: 0.4517
--
molecule: cr317 (nucleic acid, listed as DNA, chemistry not fully specified) guide: GTTTAAGAGCTAAGCTGGAAACAGCATAGCAAGTTTAAATATGGCTAGTCCGTTATCAACTTGAAAAAGTGGCACCGAGTCGGTGCT
measured endpoint: Mean relative activity
obs value: 0.5027
--
molecule: cr668 (nucleic acid, listed as DNA, chemistry not fully specified) guide: GTTTAAGAGCTAAGCTGGAAACAGCATAGCAAGTTTAAATAAGGCTAGTCCGTTATCAAGTTGAAAAAGTGGCACCGAGTCGGTGCT
measured endpoint: Mean relative activity
obs value: 0.4445
--
molecule: cr399 (nucleic acid, listed as DNA, chemistry not fully specified) guide: GTTTAAGAGCTAAGCTGGAAACAGCATAGCAAGTTTAAATAAGGCTAGTCCGTTATCAACTTGAAAAAGTGGCACCGAGTCCGTGCT
measured endpoint: Mean relative activity
obs value: 0.4727
